Reference source: the supplement of paper PMC9112550

Answer each item with its documented shrunken log2 fold change.
system: Escherichia coli TOP10; test: shrunken log2 fold change of peptide-encoding DNA abundance (4.5 h post-induction vs induction); higher = less antimicrobial activity (less host growth inhibition); conditions: time post-induction: 4.5 h; library: site-saturation at positions 5, 18, 19, 20;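 note: peptides expressed intracellularly from a pBAD plasmid library in pooled LB shake-flask culture, induced with 0.3% L-arabinose, DNA abundance read by NGS, three biological replicates, DESeq2 with apeglm shrinkage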

Solved entries (count: 4):
>  <Entry Sequence>
RRIRLRPPRLPRPRPRPTRYPRP

>  <Measured Value>
0.0777

$$$$
>  <Entry Sequence>
RRIRMRPPRLPRPRPRPLIAPRP

>  <Measured Value>
0.34

$$$$
>  <Entry Sequence>
RRIRQRPPRLPRPRPRPCLNPRP

>  <Measured Value>
-0.632

$$$$
>  <Entry Sequence>
RRIRMRPPRLPRPRPRPGLLPRP

>  <Measured Value>
0.251

$$$$

List shrunken log2 fold change for every entry below, keeping the order given.
1. RRIRQRPPRLPRPRPRPQFIPRP
2. RRIRCRPPRLPRPRPRPHMGPRP
3. RRIRCRPPRLPRPRPRPLMIPRP
4. RRIRYRPPRLPRPRPRPGVGPRP
5. RRIRNRPPRLPRPRPRPTFIPRP
6. RRIRNRPPRLPRPRPRPQWWPRP
7. RRIRERPPRLPRPRPRPAPVPRP

Key:
-0.0627
-0.29
-0.431
-0.103
-0.279
0.034
0.055
